target: GLP-1 Receptor (Homo sapiens)
Sequence (P43220 24-463, species assumed): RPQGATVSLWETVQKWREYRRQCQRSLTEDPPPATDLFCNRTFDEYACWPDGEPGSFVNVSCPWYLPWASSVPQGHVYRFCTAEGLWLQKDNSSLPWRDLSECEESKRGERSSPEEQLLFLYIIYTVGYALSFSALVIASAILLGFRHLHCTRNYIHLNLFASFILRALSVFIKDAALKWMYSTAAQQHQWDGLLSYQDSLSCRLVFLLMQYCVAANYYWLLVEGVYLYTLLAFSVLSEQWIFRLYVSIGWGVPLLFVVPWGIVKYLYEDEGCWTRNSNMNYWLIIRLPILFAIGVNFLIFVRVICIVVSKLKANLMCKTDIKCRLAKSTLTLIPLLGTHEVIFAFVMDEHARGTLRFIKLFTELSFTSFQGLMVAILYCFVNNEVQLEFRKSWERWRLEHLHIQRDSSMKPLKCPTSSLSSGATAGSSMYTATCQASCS
measurementDescription: GLP-1R agonist cAMP stimulation assay (HEK293/GLP1R/CRE-LUC cells, Cisbio cAMP dynamic 2 kit)
Format: cell-based
conditionSummary: Table 3, HEK293/GLP1R/CRE-LUC cells, 30 min
recordedEndpoint: pEC50
Lab note: report pEC50 as minus log10 of the concentration in molar units, number only.

Form field: reported pEC50 of Cc1cc(-n2nc3c(c2-n2ccn(-c4ccc(S(C)(=N)=O)cc4)c2=O)[C@H](C)N(C(=O)c2cc4cc(C5CCOCC5)ccc4n2[C@@]2(c4noc(=O)[nH]4)C[C@@H]2C)CC3)cc(C)c1F (stereo partly shown) [Compound 110] 10.55

Let us now turn to CCS(=N)(=O)c1ccc(-n2ccn(-c3c4c(nn3-c3cc(C)c(F)c(C)c3)CCN(C(=O)c3cc5cc(C6CCOCC6)ccc5n3[C@@]3(c5noc(=O)[nH]5)C[C@@H]3C)[C@H]4C)c2=O)cn1 (single isomer, unassigned) [Compound 140] 10.00

Let us now turn to CN=S(=O)(c1ccc(-n2ccn(-c3c4c(nn3-c3cc(C)c(F)c(C)c3)CCN(C(=O)c3cc5cc(C6CCOCC6)ccc5n3[C@@]3(c5noc(=O)[nH]5)C[C@@H]3C)[C@H]4C)c2=O)c(F)c1)C1CC1 (single isomer, unassigned) [Compound 221] 10.52

Let us now turn to Cc1cc(-n2nc3c(c2-n2ccn(-c4ccc(S5(=O)=NCCC5)cc4)c2=O)[C@H](C)N(C(=O)c2cc4cc(C5CCOCC5)ccc4n2C2(c4nnn[nH]4)CC2)CC3)cc(C)c1F (single isomer, unassigned) 10.43

* * *

Hi there, I'd appreciate the recorded AUC for every entry that follows.
measurementDescription: Rat PO PK study, Method B
Type: in vivo, male Sprague Dawley (SD) rats
conditionSummary: male, Sprague Dawley, plasma, 100 mg/kg, 20% solutol HS 15 in water
Record the value in µg·h/mL, omitting the unit from your answer.

Form field: reported AUC of CN=S(=O)(c1ccc(-n2ccn(-c3c4c(nn3-c3cc(C)c(F)c(C)c3)CCN(C(=O)c3cc5cc([C@H]6CCOC(C)(C)C6)ccc5n3[C@@]3(c5noc(=O)[nH]5)C[C@@H]3C)[C@H]4C)c2=O)c(F)c1NC)C1CC1 (single isomer, unassigned) [Compound 238] 124

Let us now turn to CCS(=O)(=NC)c1ccc(-n2ccn(-c3c4c(nn3-c3cc(C)c(F)c(C)c3)CCN(C(=O)c3cc5cc([C@H]6CCOC(C)(C)C6)ccc5n3[C@@]3(c5noc(=O)[nH]5)C[C@@H]3C)[C@H]4C)c2=O)c(F)c1 (single isomer, unassigned) [Compound 164] 173

* * *

target: GLP-1 Receptor (Homo sapiens)
measurementDescription: GLP-1R agonist cAMP stimulation assay (HEK293/GLP1R/CRE-LUC cells, Cisbio cAMP dynamic 2 kit)
Assay type: cell-based
conditionSummary: Table 3, HEK293/GLP1R/CRE-LUC cells, 30 min
recordedEndpoint: pEC50
Lab note: report pEC50 as minus log10 of the concentration in molar units, number only.

Form field: reported pEC50 of Cc1cc(-n2nc3c(c2-n2ccn(-c4ccc(S(=O)(=NC5CC5)C5CC5)cc4F)c2=O)[C@H](C)N(C(=O)c2cc4cc([C@H]5CCOC(C)(C)C5)ccc4n2[C@@]2(c4noc(=O)[nH]4)C[C@@H]2C)CC3)cc(C)c1F (single isomer, unassigned) 9.66

Let us now turn to Cc1cc(-n2nc3c(c2-n2ccn(-c4ccc5c(c4F)CCN=S5(=O)C4CC4)c2=O)[C@H](C)N(C(=O)c2cc4cc([C@H]5CCOC(C)(C)C5)ccc4n2[C@@]2(c4noc(=O)[nH]4)C[C@@H]2C)CC3)cc(C)c1F (single isomer, unassigned) [Compound 198] 10.64

Let us now turn to CCS(=N)(=O)c1ccc(-n2ccn(-c3c4c(nn3-c3cc(C)c(F)c(C)c3)CCN(C(=O)c3cc5cc(C6CCOCC6)ccc5n3[C@@]3(c5noc(=O)[nH]5)C[C@@H]3C)[C@H]4C)c2=O)cc1 (single isomer, unassigned) [Compound 117] 10.96

Let us now turn to Cc1cc(-n2nc3c(c2-n2ccn(-c4ccc(S5(=O)=NCCC5)cc4)c2=O)[C@H](C)N(C(=O)c2cc4cc(C5CCOCC5)ccc4n2[C@@]2(c4noc(=O)[nH]4)C[C@@H]2C)CC3)cc(C)c1F (single isomer, unassigned) [Compound 142] 10.35
